Experimental system: Serine/threonine-protein kinase pim-2 (Homo sapiens) (UniProt Q9P1W9);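 further: each value is a mean of the inhibition measurements against the kinase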
Sequence (Q9P1W9 whole entry, looked up): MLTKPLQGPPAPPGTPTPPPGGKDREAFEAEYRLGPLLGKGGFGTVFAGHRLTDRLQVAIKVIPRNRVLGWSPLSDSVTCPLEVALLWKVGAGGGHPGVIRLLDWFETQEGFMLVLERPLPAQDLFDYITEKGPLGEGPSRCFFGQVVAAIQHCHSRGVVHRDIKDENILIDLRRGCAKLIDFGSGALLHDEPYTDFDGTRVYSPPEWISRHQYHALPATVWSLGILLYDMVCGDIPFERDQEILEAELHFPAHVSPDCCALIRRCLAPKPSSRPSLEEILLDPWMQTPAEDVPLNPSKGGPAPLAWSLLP
Particulars: at 1 µM
Below is a list of entries, each paired with its recorded inhibition value.
Measurement kind: inhibition (%)

> print(dat)
                                    molecule  observed
 1  Nc1nccc(-c2c(-c3ccc(F)cc3)ncn2C2CCC(O)CC2)n1 (stereo not given)      0.53
 2  Fc1ccc(-c2ncn(C3CCNCC3)c2-c2ccnc(Oc3ccc4c(c3)OCO4)n2)cc1      0.71
 3  CN1CCN(CCCNc2nc3ccc(Oc4ccc(NC(=O)Nc5cc(C(F)(F)F)ccc5F)cc4)cc3[nH]2)CC1     -1.74
 4  COc1cc(Nc2ncc3c(C)nc(-c4cccc(Oc5ccccc5)c4)n3n2)cc(OC)c1OC      1.14
 5  NS(=O)(=O)c1ccc(N/N=C2\C(=O)Nc3ccc(-c4cnco4)cc32)cc1      24.5
 6  COc1ccc(C2=C(N3CCc4ccccc43)C(=O)NC2=O)cc1      0.67
 7  COc1cccc(/C=N/Nc2ncnc3c2cnn3-c2cccc(OC)c2)c1     -0.53
 8  C[C@@H](Oc1cc(-n2cnc3ccc(OC4CCN(C)CC4)cc32)sc1C(N)=O)c1ccccc1Cl     -3.56
 9  CCC(=O)Nc1ccc(C)c(-c2ccc(C(=O)NCC3CC3)cc2)c1      0.38
10  Cc1ccc(NC(=O)c2ccoc2)cc1-c1ccc(C(=O)NCC2CC2)cc1       0.6

meta.source: ChEMBL document CHEMBL1961873
